Protocol Summary: qHTS assay to identify small molecule agonists of the constitutive androstane receptor (CAR) signaling pathway - cell viability counter screen (AID 1224836); note: nearly all actives have a fitted effect of over 45% in size
Condition Set: HepG2-CYP2B6-hCAR viability, CellTiter-Fluor, 23 h, PK11195 added to every well; series mostly up to 92.4 µM
Records with an inconclusive call do not appear. The source made the active and inactive calls. Calls come from the whole dose curve; as a rule, active = well fitted cell-killing curve with a large enough effect in the repeat runs; inconclusive = weak or mixed curves, or effect the other way; inactive = flat fitted curve, though single readings scatter.
Classes used: active, inactive

>  <Compound>
CCCC(=O)c1ccccc1

>  <Assigned Class>
inactive

$$$$
>  <Compound>
CCOC(=O)C(C)C(C)=O (stereo not drawn)

>  <Assigned Class>
inactive

$$$$
>  <Compound>
CO[Si](OC)(OC)c1ccccc1

>  <Assigned Class>
inactive

$$$$
>  <Compound>
CC(C)(C)NCC(O)COc1ccccc1OCC1CCCO1 (stereo not drawn)

>  <Assigned Class>
inactive

$$$$
>  <Compound>
BrC1CCC(Br)C(Br)CCC(Br)C(Br)CCC1Br (stereo not drawn)

>  <Assigned Class>
inactive

$$$$
>  <Compound>
O=C(O)CCc1ccccc1

>  <Assigned Class>
inactive

$$$$
>  <Compound>
CC(C)CCOCc1ccccc1

>  <Assigned Class>
inactive

$$$$
>  <Compound>
CC(C)CCOC(=O)c1ccc(N(C)C)cc1

>  <Assigned Class>
inactive

$$$$
>  <Compound>
Cc1cc(C(C)(C)C)c(O)c(C(C)(C)C)c1

>  <Assigned Class>
inactive

$$$$
>  <Compound>
O

>  <Assigned Class>
inactive

$$$$
>  <Compound>
CC(=O)C1=C(C)[C@@H]2C[C@@]3(C1)[C@H](C)CC[C@H]3C2(C)C

>  <Assigned Class>
inactive

$$$$
>  <Compound>
c1ccc2cc3c(ccc4ccccc43)cc2c1

>  <Assigned Class>
inactive

$$$$
>  <Compound>
CCCCCCCCCCCCc1ccccc1O

>  <Assigned Class>
inactive

$$$$
>  <Compound>
CCCOC(=O)c1cc(O)c(O)c(O)c1

>  <Assigned Class>
inactive

$$$$
>  <Compound>
c1ccc2n[nH]nc2c1

>  <Assigned Class>
inactive

$$$$
>  <Compound>
COc1ccc(CCN(C)CCCC(C#N)(c2ccc(OC)c(OC)c2)C(C)C)cc1OC (stereo not drawn)

>  <Assigned Class>
active

$$$$
>  <Compound>
CC(C)(c1ccccc1)c1ccc(Nc2ccc(C(C)(C)c3ccccc3)cc2)cc1

>  <Assigned Class>
inactive

$$$$
>  <Compound>
CC(C)(C)c1cc(C(C)(C)C)c(O)c(C(C)(C)C)c1

>  <Assigned Class>
inactive

$$$$
>  <Compound>
O=C(O)c1cccc(C(=O)O)c1

>  <Assigned Class>
inactive

$$$$
>  <Compound>
CCCCOCCOC(=O)c1ccccc1C(=O)OCCOCCCC

>  <Assigned Class>
inactive

$$$$
>  <Compound>
O=C(O)c1cn(-c2ccc(F)cc2)c2cc(N3CCNCC3)c(F)cc2c1=O

>  <Assigned Class>
inactive

$$$$
>  <Compound>
CN(C)c1ccc(C(=C2C=CC(=[N+](C)C)C=C2)c2ccccc2)cc1

>  <Assigned Class>
active

$$$$
>  <Compound>
C=CC(=O)OCCCCCCCC

>  <Assigned Class>
inactive

$$$$
>  <Compound>
[Cl][In]([Cl])[Cl]

>  <Assigned Class>
inactive

$$$$
>  <Compound>
OCC(CO)N[C@H]1C[C@](O)(CO)[C@@H](O)[C@H](O)[C@H]1O

>  <Assigned Class>
inactive

$$$$
>  <Compound>
C[N+]1([O-])CCOCC1

>  <Assigned Class>
inactive

$$$$
>  <Compound>
Cc1cccc(O)c1C

>  <Assigned Class>
inactive

$$$$
>  <Compound>
C1COC(NC(C2CC2)C2CC2)=N1

>  <Assigned Class>
inactive

$$$$
>  <Compound>
CC(C)(C)NC(=O)[C@@H]1CN(Cc2cccnc2)CCN1C[C@@H](O)C[C@@H](Cc1ccccc1)C(=O)N[C@H]1c2ccccc2C[C@H]1O

>  <Assigned Class>
inactive

$$$$
>  <Compound>
O=Cc1ccc(Cl)cc1

>  <Assigned Class>
inactive

$$$$
>  <Compound>
COc1ccc(COC(C)=O)cc1

>  <Assigned Class>
inactive

$$$$
>  <Compound>
O=C(Cl)c1cccc(C(=O)Cl)c1

>  <Assigned Class>
inactive

$$$$
>  <Compound>
Cc1scc2c1N(C(=O)CN1CCN(C)CC1)c1ccccc1NC2=O

>  <Assigned Class>
inactive

$$$$

====

Protocol Summary: qHTS assay to identify aromatase inhibitors - cell viability counter screen (AID 743084);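 note: cells stimulated with testosterone during compound exposure; nearly all actives have a fitted effect of over 55% in size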
Condition Set: MCF-7 aro ERE viability, CellTiter-Fluor, 24 h; series mostly up to 70.3 µM
Records with an inconclusive call do not appear. Calls of active or inactive are those of the source. Calls come from the whole dose curve; as a rule, active = well fitted cell-killing curve with a large enough effect in the repeat runs; inconclusive = weak or mixed curves, or effect the other way; inactive = no such curve, though single readings can be large or run the other way.
Outcomes: active, inactive

>  <Compound>
CCOc1ccc2c(c1)C(C)=CC(C)(C)N2

>  <Assigned Class>
inactive

$$$$
>  <Compound>
c1ccc2cc3c(ccc4ccccc43)cc2c1

>  <Assigned Class>
inactive

$$$$
>  <Compound>
CCCCCCCCCCCC[N+](C)(C)C

>  <Assigned Class>
inactive

$$$$
>  <Compound>
COc1ccc(CCN(C)CCCC(C#N)(c2ccc(OC)c(OC)c2)C(C)C)cc1OC (stereo unspecified)

>  <Assigned Class>
active

$$$$
>  <Compound>
CCCCCC(=O)O[C@]1(C(C)=O)CC[C@H]2[C@@H]3CCC4=CC(=O)CC[C@]4(C)[C@H]3CC[C@@]21C

>  <Assigned Class>
inactive

$$$$
>  <Compound>
O=C1NCC2(CCN(CCc3ccccc3)CC2)O1

>  <Assigned Class>
inactive

$$$$

====

Protocol Summary: A CellTox Green Cytotoxicity Assay to monitor cytotoxicity in HEK293 cells - 8 hour (AID 1224884); note: nearly all actives have a fitted effect of over 35% in size
Condition Set: CellTox Green fluorescence; series mostly up to 76.8 µM
Results filed as inconclusive are left out. Calls of active or inactive are those of the source. Calls come from the whole dose curve; as a rule, active = well fitted activation curve with a large enough effect in the repeat runs; inconclusive = weak or mixed curves; inactive = flat fitted curve, though single readings scatter.
Labels: y = active, n = inactive

>  <Molecule>
CCCCC(CC)COC(=O)CC(C(=O)OCC(CC)CCCC)S(=O)(=O)O (stereo unspecified)

>  <Assigned Class>
y

$$$$
>  <Molecule>
O=C(O[C@@H]1Cc2c(O)cc(O)cc2O[C@@H]1c1cc(O)c(O)c(O)c1)c1cc(O)c(O)c(O)c1

>  <Assigned Class>
n

$$$$
>  <Molecule>
CC1COC(=O)O1 (stereo unspecified)

>  <Assigned Class>
n

$$$$
>  <Molecule>
O=C1NCC2(CCN(CCc3ccccc3)CC2)O1

>  <Assigned Class>
n

$$$$
>  <Molecule>
CN(C)c1ccc(C(=C2C=CC(=[N+](C)C)C=C2)c2ccccc2)cc1

>  <Assigned Class>
n

$$$$
>  <Molecule>
c1cnc2cc3c(cc2n1)C1CNCC3C1

>  <Assigned Class>
n

$$$$

====

Protocol Summary: qHTS assay to identify small molecule agonists of the NFkB signaling pathway - cell viability counter screen (AID 1159515); note: nearly all actives have a fitted effect of over 55% in size
Condition Set: NFkB-bla ME-180 viability, CellTiter-Glo luminescence, 5 h; series mostly up to 61 µM
Inconclusive results are not listed. Calls of active or inactive are those of the source. Calls come from the whole dose curve. Starred links: 1 amine or outer side, 2 acyl side, 3 side chain; linkers in the order of their positions; H or OH if unused. Positions of bridges follow the written chain, without caps; N, C: chain ends. Non-standard residues stand in square brackets, D forms with d. Residues, ends and D or L forms follow the SMILES beside them. Chains are numbered I, II in the order given. Actinocin(9to1) = Cc1c2oc3c(C)ccc(C(=O)[*:1])c3nc-2c(C(=O)[*:2])c(N)c1=O; NMeV = CN[C@H](C(=O)O)C(C)C; Sar = CNCC(=O)O
Outcomes: yes for active, no for inactive

>  <Compound>
OCC(CO)N[C@H]1C[C@](O)(CO)[C@@H](O)[C@H](O)[C@H]1O

>  <Assigned Class>
no

$$$$
>  <Compound>
O=C(Cl)c1cccc(C(=O)Cl)c1

>  <Assigned Class>
no

$$$$
>  <Compound>
CCCCCCCCCCCCCCCCCl

>  <Assigned Class>
no

$$$$
>  <Compound>
Nc1nc2ccccc2[nH]1

>  <Assigned Class>
no

$$$$
>  <Compound>
CC(C)(c1ccccc1)c1ccc(Nc2ccc(C(C)(C)c3ccccc3)cc2)cc1

>  <Assigned Class>
no

$$$$
>  <Compound>
COc1nc(C)nc(Cl)c1NC1=NCCN1

>  <Assigned Class>
no

$$$$
>  <Compound>
CC(COc1ccccc1)N(CCCl)Cc1ccccc1 (stereo not drawn)

>  <Assigned Class>
no

$$$$
>  <Compound>
Cc1cccc2n[nH]nc12

>  <Assigned Class>
no

$$$$
>  <Compound>
Cc1occc(=O)c1OC(=O)C(C)C

>  <Assigned Class>
no

$$$$
>  <Compound>
O=c1n(CC2CO2)c(=O)n(CC2CO2)c(=O)n1CC1CO1 (stereo not drawn)

>  <Assigned Class>
no

$$$$
>  <Compound>
Cc1ccc(S(=O)(=O)Oc2ccc(N=Nc3ccc(-c4ccc(N=Nc5c(O)ccc6cc(S(=O)(=O)O)cc(S(=O)(=O)O)c56)c(C)c4)cc3C)cc2)cc1

>  <Assigned Class>
no

$$$$
>  <Compound>
CCCCN(CCO)CCCC

>  <Assigned Class>
no

$$$$
>  <Compound>
O=Cc1ccc(Cl)cc1

>  <Assigned Class>
no

$$$$
>  <Compound>
Nc1cc(S(=O)(=O)O)cc2cc(S(=O)(=O)O)cc(O)c12

>  <Assigned Class>
no

$$$$
>  <Compound>
CCC(CO)(CO)COCC(CC)(CO)CO

>  <Assigned Class>
no

$$$$
>  <Compound>
Clc1ccc2c(c1)C(N1CCNCC1)=Nc1ccccc1O2

>  <Assigned Class>
no

$$$$
>  <Compound>
C#CC(C)(CC)OC(=O)c1ccccc1C(=O)O (stereo not drawn)

>  <Assigned Class>
no

$$$$
>  <Compound>
CCC(C)(C)C(=O)O[C@H]1C[C@@H](C)C=C2C=C[C@H](C)[C@H](CC[C@@H]3C[C@@H](O)CC(=O)O3)[C@H]21

>  <Assigned Class>
no

$$$$
>  <Compound>
CC(C)CCOCc1ccccc1

>  <Assigned Class>
no

$$$$
>  <Compound>
CC(=O)OCCOCCOCCOC(C)=O

>  <Assigned Class>
no

$$$$
>  <Compound>
CC(=O)CC(C)=O

>  <Assigned Class>
no

$$$$
>  <Compound>
CC(=O)Nc1ccc(C(=O)CCl)cc1

>  <Assigned Class>
no

$$$$
>  <Compound>
c1ccc2c(c1)-c1cccc3c1c-2cc1ccccc13

>  <Assigned Class>
no

$$$$
>  <Compound>
COC(=O)/C=C/c1ccccc1

>  <Assigned Class>
no

$$$$
>  <Compound>
OCCOCCN1CCN(C(c2ccccc2)c2ccc(Cl)cc2)CC1 (stereo not drawn)

>  <Assigned Class>
no

$$$$
>  <Compound>
O=C(O)CCc1ccccc1

>  <Assigned Class>
no

$$$$
>  <Compound>
CCn1c2ccccc2c2cc(N)ccc21

>  <Assigned Class>
no

$$$$
>  <Compound>
O=C(Oc1ccccc1)c1ccccc1O

>  <Assigned Class>
no

$$$$
>  <Compound>
CC1=C(C=O)C(C)(C)CC=C1

>  <Assigned Class>
no

$$$$
>  <Compound>
O=S(=O)(O)c1ccc2nc(-c3ccccc3)[nH]c2c1

>  <Assigned Class>
yes

$$$$
>  <Compound>
OCCN1CCNCC1

>  <Assigned Class>
no

$$$$
>  <Compound>
O

>  <Assigned Class>
no

$$$$
>  <Compound>
Cc1cccc([N+](=O)[O-])c1C(=O)O

>  <Assigned Class>
no

$$$$
>  <Compound>
CC(C)(O)CCC(C)(C)O

>  <Assigned Class>
no

$$$$
>  <Compound>
O=C1Nc2ccccc2C1(c1ccc(O)cc1)c1ccc(O)cc1

>  <Assigned Class>
yes

$$$$
>  <Compound>
[Cl][In]([Cl])[Cl]

>  <Assigned Class>
no

$$$$
>  <Compound>
Cc1c(O)cccc1C(=O)N[C@@H](CSc1ccccc1)[C@H](O)CN1C[C@H]2CCCC[C@H]2C[C@H]1C(=O)NC(C)(C)C

>  <Assigned Class>
no

$$$$
>  <Compound>
CCCC(=O)c1ccccc1

>  <Assigned Class>
no

$$$$
>  <Compound>
CC(C)C(=O)c1c(C(C)C)nn2ccccc12

>  <Assigned Class>
no

$$$$
>  <Compound>
O=C(O)Cn1cnnn1

>  <Assigned Class>
no

$$$$
>  <Compound>
CCC[C@H](N[C@@H](C)C(=O)N1[C@H](C(=O)O)C[C@@H]2CCCC[C@@H]21)C(=O)OCC

>  <Assigned Class>
no

$$$$
>  <Compound>
CN(C)c1ccc2nc3ccc(=[N+](C)C)cc-3sc2c1

>  <Assigned Class>
no

$$$$
>  <Compound>
Cc1c2oc3c(C)ccc(C(=O)N[C@@H]4C(=O)N[C@H](C(C)C)C(=O)N5CCC[C@H]5C(=O)N(C)CC(=O)N(C)[C@@H](C(C)C)C(=O)O[C@@H]4C)c3nc-2c(C(=O)N[C@@H]2C(=O)N[C@H](C(C)C)C(=O)N3CCC[C@H]3C(=O)N(C)CC(=O)N(C)[C@@H](C(C)C)C(=O)O[C@@H]2C)c(N)c1=O (I: T[dV]P[Sar][NMeV] / II: T[dV]P[Sar][NMeV]; ester I:1-I:C, II:1-II:C; linker I:N-II:N via Actinocin(9to1))

>  <Assigned Class>
no

$$$$
>  <Compound>
CC1=CC(=O)c2ccccc2C1=O

>  <Assigned Class>
yes

$$$$
>  <Compound>
CCc1cc(C(C)(C)C)c(O)c(C(C)(C)C)c1

>  <Assigned Class>
no

$$$$
>  <Compound>
CC(C)(C)c1cc(C(C)(C)C)c(O)c(C(C)(C)C)c1

>  <Assigned Class>
no

$$$$
>  <Compound>
CCCCC/C=C/CC1CC(=O)OC1=O (stereo not drawn)

>  <Assigned Class>
no

$$$$
>  <Compound>
COC(c1ccccc1)(c1ccccc1)[C@H](Oc1nc(C)cc(C)n1)C(=O)O

>  <Assigned Class>
no

$$$$
